Where do these numbers come from? They come from ChEMBL document CHEMBL1141938.

Measured pIC50 on Human immunodeficiency virus type 1 protease (Human immunodeficiency virus 1) follows.
pIC50: −log10 of the molar value.
experimental.endpoint: pIC50

[[record]]
molecule = "O=C(N[C@H]1c2ccccc2OC[C@H]1O)[C@H](Cc1cc2cnccc2s1)C[C@H](O)CN1CCN(Cc2csc(-c3ccc(C(F)(F)F)cc3)n2)C[C@H]1C(=O)NCC(F)(F)F"
experimental_endpoint = "pIC50"
value_relation_sign = "="
assay_result = 10.15

[[record]]
molecule = "CC(C)(c1ncc(-c2ccc(Cl)cc2)o1)N1CCN(C[C@@H](O)C[C@@H](Cc2cc3ccncc3s2)C(=O)N[C@H]2c3ccccc3OC[C@H]2O)[C@H](C(=O)NCC(F)(F)F)C1"
experimental_endpoint = "pIC50"
value_relation_sign = ">"
assay_result = 10.70

[[record]]
molecule = "O=C(N[C@H]1c2ccccc2OC[C@H]1O)[C@H](Cc1cc2cnccc2s1)C[C@H](O)CN1CCN(Cc2ccc(-c3ccc(Cl)cc3)s2)C[C@H]1C(=O)NCC(F)(F)F"
experimental_endpoint = "pIC50"
value_relation_sign = "="
assay_result = 10.30

[[record]]
molecule = "CC(C)(c1ncc(-c2ccc(Cl)cc2)o1)N1CCN(C[C@@H](O)C[C@@H](Cc2cc3c(Cl)cncc3s2)C(=O)N[C@H]2c3ccccc3OC[C@H]2O)[C@H](C(=O)NCC(F)(F)F)C1"
experimental_endpoint = "pIC50"
value_relation_sign = ">"
assay_result = 10.70

[[record]]
molecule = "CC(C)(c1ncc(-c2ccc(Cl)cc2)o1)N1CCN(C[C@@H](O)C[C@@H](Cc2cc3ccncc3o2)C(=O)N[C@H]2c3ccccc3OC[C@H]2O)[C@H](C(=O)NCC(F)(F)F)C1"
experimental_endpoint = "pIC50"
value_relation_sign = "="
assay_result = 10.70

[[record]]
molecule = "Cc1ccncc1-c1ccc(C[C@H](C[C@H](O)CN2CCN(Cc3ncc(-c4ccc(Cl)cc4)o3)C[C@H]2C(=O)NCC(F)(F)F)C(=O)N[C@H]2c3ccccc3OC[C@H]2O)o1"
experimental_endpoint = "pIC50"
value_relation_sign = "="
assay_result = 10.52

[[record]]
molecule = "Cc1ccncc1-c1ccc(C[C@H](C[C@H](O)CN2CCN(Cc3csc(-c4ccc(F)cc4)n3)C[C@H]2C(=O)NCC(F)(F)F)C(=O)N[C@H]2c3ccccc3OC[C@H]2O)o1"
experimental_endpoint = "pIC50"
value_relation_sign = "="
assay_result = 9.96

[[record]]
molecule = "Cc1ccncc1-c1ccc(C[C@H](C[C@H](O)CN2CCN(Cc3ccc(-c4ccc(Cl)cc4)s3)C[C@H]2C(=O)NCC(F)(F)F)C(=O)N[C@H]2c3ccccc3OC[C@H]2O)o1"
experimental_endpoint = "pIC50"
value_relation_sign = "="
assay_result = 10.40

[[record]]
molecule = "O=C(N[C@H]1c2ccccc2OC[C@H]1O)[C@H](Cc1cc2ccncc2o1)C[C@H](O)CN1CCN(Cc2ccc(-c3ccc(Cl)cc3)o2)C[C@H]1C(=O)NCC(F)(F)F"
experimental_endpoint = "pIC50"
value_relation_sign = "="
assay_result = 10.30

[[record]]
molecule = "CC(C)(c1ncc(-c2ccc(Cl)cc2)o1)N1CCN(C[C@@H](O)C[C@@H](Cc2cc3cnccc3s2)C(=O)N[C@H]2c3ccccc3OC[C@H]2O)[C@H](C(=O)NCC(F)(F)F)C1"
experimental_endpoint = "pIC50"
value_relation_sign = "="
assay_result = 10.70

[[record]]
molecule = "CC(C)(c1ncc(-c2ccc(Cl)cc2)s1)N1CCN(C[C@@H](O)C[C@@H](Cc2cc3cnccc3s2)C(=O)N[C@H]2c3ccccc3OC[C@H]2O)[C@H](C(=O)NCC(F)(F)F)C1"
experimental_endpoint = "pIC50"
value_relation_sign = "="
assay_result = 10.40

